Source listed as patent US20230265208A1.

# tested on: T1, MUC1-ECD (human, UniProt P15941 1098-1155)
# T1 construct: also called Ag MUC1-ECD; Antigen MUC1-ECD
# T1 sequence: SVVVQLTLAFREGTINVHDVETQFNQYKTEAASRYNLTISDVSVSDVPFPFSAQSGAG
# assay protocol: SPR Biacore T200, antibody on chip, MUC1-ECD analyte, 1:1 fit
Measured Kd, listed per entry.

binder	Kd / nM
VH1 + VL4 (antibody, V domains shown) VH: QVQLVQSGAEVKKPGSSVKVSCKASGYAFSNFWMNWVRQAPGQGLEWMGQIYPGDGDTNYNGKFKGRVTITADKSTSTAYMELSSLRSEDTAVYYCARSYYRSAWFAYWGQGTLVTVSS VL: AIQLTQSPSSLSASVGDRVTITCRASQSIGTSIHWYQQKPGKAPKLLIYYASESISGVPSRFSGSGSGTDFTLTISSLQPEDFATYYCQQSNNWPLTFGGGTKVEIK	7.13
VH5 + VL3 (antibody, human IgG1, kappa, V domains shown, Full-length humanized IgG expressed in HEK293 and purified on protein A. Constant regions not specified; also called #23 (inferred from 5x5 numbering)) VH: EVQLVQSGAEVKKPGESLKISCKGSGFTFNYFWIEWVRQMPGKGLEWMGEILPGTGSTNYNEKFKGQVTISADKSISTAYLQWSSLKASDTAMYYCARYDYTSSMDYWGQGTLVTVSS VL: EIVLTQSPATLSLSPGERATLSCRASESVQYSGTSLMHWYQQKPGQAPRLLIYGASNVETGIPARFSGSGSGTDFTLTISSLEPEDFAVYYCQQNWKVPWTFGQGTKVEIKR	1.55
VH5 + VL2 (antibody, V domains shown) VH: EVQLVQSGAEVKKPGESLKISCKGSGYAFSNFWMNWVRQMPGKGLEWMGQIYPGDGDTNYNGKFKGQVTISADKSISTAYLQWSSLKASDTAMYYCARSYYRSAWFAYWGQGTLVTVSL VL: EIVMTQSPATLSVSPGERATLSCRASQSIGTSIHWYQQKPGQAPRLLIYYASESISGIPARFSGSGSGTEFTLTISSLQSEDFAVYYCQQSNNWPLTFGGGTKVEIK	2.75
VH2 + VL3 (antibody, V domains shown) VH: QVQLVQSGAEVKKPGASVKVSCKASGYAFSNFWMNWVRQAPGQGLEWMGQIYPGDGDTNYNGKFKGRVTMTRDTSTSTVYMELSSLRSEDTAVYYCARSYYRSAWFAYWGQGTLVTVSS VL: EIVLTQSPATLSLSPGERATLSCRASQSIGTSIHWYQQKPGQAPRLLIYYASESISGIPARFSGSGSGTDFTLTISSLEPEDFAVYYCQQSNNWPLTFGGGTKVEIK	3.6
